# procedure text: Oral bioavailability in Sprague-Dawley rat at […] by LC-MS/MS method
# Format: ADME, organism-based
# assay conditions: in vivo
measurement name: bioavailability (%)
Write it as a number; the unit % goes unstated.

**Q:** I have this compound here, `C[C@H]1Cc2c(nnn2-c2ncc(F)cn2)CN1C(=O)c1cccc(C(F)(F)F)c1F` , and I need its recorded bioavailability.
**A:** 90

---

# procedure text: AUC (24 hrs) in cynomolgus monkey at 0.5 mg/kg, iv or […], po by LC-MS/MS method
# Format: ADME, organism-based, Macaca fascicularis
# assay conditions: in vivo
measurement name: AUC at 24 h
The answer consists of two parts: a number and, after it, its unit.

**Q:** I have this molecule here, `C[C@H]1Cc2c(nnn2-c2ncc(F)cn2)CN1C(=O)c1ccnc(C(F)(F)F)c1F` , and I need its recorded AUC at 24 h.
**A:** 16300 ng·h/mL

---

# procedure text: Cmax in cynomolgus monkey at 0.5 mg/kg, iv or […], po by LC-MS/MS method
# Type: ADME, organism-based, Macaca fascicularis
# assay conditions: in vivo
measurement name: Cmax (ng/mL)
Write it as a number; the unit ng/mL goes unstated.

**Q:** I have this compound here, `C[C@H]1Cc2c(nnn2-c2ncc(F)cn2)CN1C(=O)c1ccnc(C(F)(F)F)c1F` , and I need its recorded Cmax.
**A:** 1860

---

# procedure text: Volume of distribution at steady state in Beagle dog at […], iv or 1.25 mg/kg, po by LC-MS/MS method
# Type: ADME, organism-based, Canis lupus familiaris
# assay conditions: in vivo, read-out: Vdss
measurement name: Vd (L/kg)
Write it as a number; the unit L/kg goes unstated.

**Q:** I have this molecule here, `C[C@H]1Cc2c(nnn2-c2ncc(F)cn2)CN1C(=O)c1ccnc(C(F)(F)F)c1F` , and I need its recorded Vd.
**A:** 1.4

---

# procedure text: Oral bioavailability in Beagle dog at 0.625 mg/kg by LC-MS/MS method
# Assay type: ADME, organism-based, Canis lupus familiaris
# assay conditions: in vivo
measurement name: bioavailability

**Q:** I have this compound here, `C[C@H]1Cc2c(nnn2-c2ncc(F)cn2)CN1C(=O)c1cccc(C(F)(F)F)c1F` , and I need its recorded bioavailability.
**A:** 123%

---

# procedure text: Clearance in cynomolgus monkey at 0.125 mg/kg, iv or 0.625 mg/kg, po by LC-MS/MS method
# Assay type: ADME, organism-based, Macaca fascicularis
# assay conditions: in vivo
measurement name: clearance (mL/min/kg)
Write it as a number; the unit mL/min/kg goes unstated.

**Q:** I have this molecule here, `C[C@H]1Cc2c(nnn2-c2ncc(F)cn2)CN1C(=O)c1cccc(C(F)(F)F)c1F` , and I need its recorded clearance.
**A:** 26

---

# procedure text: Volume of distribution at steady state in Beagle dog at 0.125 mg/kg, iv or 0.625 mg/kg, po by LC-MS/MS method
# Assay type: ADME, organism-based, Canis lupus familiaris
# assay conditions: in vivo, read-out: Vdss
measurement name: Vd (L/kg)
Write it as a number; the unit L/kg goes unstated.

**Q:** I have this compound here, `C[C@H]1Cc2c(nnn2-c2ncc(F)cn2)CN1C(=O)c1cccc(C(F)(F)F)c1F` , and I need its recorded Vd.
**A:** 2.6
